The reported measurements were obtained from PubChem BioAssay (Tox21).

Test summary: qHTS assay for small molecule agonists of the p53 signaling pathway - cell viability (AID 651633); note: nearly all actives have a fitted effect of over 30% in size
Run conditions: p53RE-bla HCT-116 viability, ATP luminescence, 16 h; series mostly up to 83.3 µM
Inconclusive results are not listed. Activity calls are given as the source filed them. Calls come from the whole dose curve.
# valid calls are active, inactive; nothing else

Some solved entries appear below for comparison.
[
  {
    "Compound": "c1csc(SSc2cccs2)c1",
    "Assigned class": "inactive"
  },
  {
    "Compound": "COC(=O)CS",
    "Assigned class": "inactive"
  },
  {
    "Compound": "COc1cc(Nc2c(C#N)cnc3cc(OCCCN4CCN(C)CC4)c(OC)cc23)c(Cl)cc1Cl",
    "Assigned class": "active"
  },
  {
    "Compound": "FC(F)(F)c1ccccc1Cl",
    "Assigned class": "inactive"
  },
  {
    "Compound": "Cc1cccc(O)c1N",
    "Assigned class": "inactive"
  },
  {
    "Compound": "Cc1cc(=O)c2c(O)c3c(O)cc(=O)c4c3c3c(cc(O)c1c23)C(C)(C)C=4O",
    "Assigned class": "active"
  },
  {
    "Compound": "CC(C)Nc1cccnc1N1CCN(C(=O)c2cc3cc(NS(C)(=O)=O)ccc3[nH]2)CC1",
    "Assigned class": "inactive"
  },
  {
    "Compound": "CCC1NC(=O)c2cc(S(N)(=O)=O)c(Cl)cc2N1 (stereo not drawn)",
    "Assigned class": "inactive"
  },
  {
    "Compound": "C=C/C(C)=C/C/C=C(\\C)CCC=C(C)C",
    "Assigned class": "inactive"
  },
  {
    "Compound": "NC1[C@H]2CN(c3nc4c(cc3F)c(=O)c(C(=O)O)cn4-c3ccc(F)cc3F)C[C@@H]12 (stereo partly drawn)",
    "Assigned class": "inactive"
  }
]

# input Which outcome was entered for the compound O=C(O)CCc1nc(-c2ccccc2)c(-c2ccccc2)o1 in this test?
# output inactive

# input Which outcome was entered for the compound O=C(/C=C/c1ccccc1)OCCc1ccccc1 in this test?
# output inactive

# input Which outcome was entered for the compound Cc1ccccc1S in this test?
# output inactive
